The measured values listed here are drawn from paper PMC3227540.

# Target of assay: human wild type TTR (Homo sapiens, UniProt P02766)
# Assay info: Isothermal titration calorimetry
# Conditions: read-out: Kd1; ITC, two-site binding model, first site
Outcome measure: pKd
# pKd is unitless: minus log10 of the molar concentration; print number only

# pKd lookup, item `O=C(c1cc(O)c(O)c([N+](=O)[O-])c1)c1ccccc1F`
7.82

====

# Target of assay: UniProt P02766
# Assay info: Isothermal titration calorimetry
# Conditions: read-out: Kd2; ITC, two-site binding model, second site
Outcome measure: Kd (nM)
The response must be a number in nM with no trailing unit.

# Kd lookup, item `O=C(c1cc(O)c(O)c([N+](=O)[O-])c1)c1ccccc1F`
2000
